Assay: yeast display, Sf9 membrane polyspecificity reagent, FACS + sequencing; frameworks hold sequencing errors
measurement label: polyreactivity (PSR sort gate)

| sequence content | measurement label | measured result |
| --- | --- | --- |
| QVQLEESAGRLVQAGGSLRLSCAASGYTFGYYAMGWYRQAPGKERQLVAAISWRGARTNYADSVKGRFTISRDNAKNTVYLQMNSLKPEDTAVYYCAAGYYYGYPPRDYWGQGTQVTVSS | polyreactivity (PSR sort gate) | high polyreactivity |
| QVQLVESGGGLVQAGGSLRLSCAASGIIFTPYTMGWYRQAPGKERELVAAITGSGGSTYYADSVKGRFTISRDNAKNTVYLQMNSLKPEDTAVYYCAAYKQYRFYRYDYWGQGTQVTVSS | polyreactivity (PSR sort gate) | high polyreactivity |
| QVQHVESVGGLVQAGGSLRLSCAASGSIFGRYAMGWYRHAPGKERELVAAISWSGGSTYYADSVKGRFTISRDNAKNTVYLQMNSLKPEDTAVYYCAATTYSGFDYWGQGTQVTVSS | polyreactivity (PSR sort gate) | high polyreactivity |
| QVQLVESGGGLVQAGGSLRLSCAASGSIFRGNAMGWYRQAPGKERELVAAISKSGGSTYYADSVKGRFTISRDHAKNTVYLQMNSLKPEDTAVYYCAARTTYLYGMYYWGQGTQVTVSS | polyreactivity (PSR sort gate) | low polyreactivity |
| QVQLVESGGGLVQAGGSLRLSCAASGIIISRYAMGWYRQAPGKERELVADISIGDSTNYADSVKGRFTISRDNAKNTVYLQMNSLKPEDTAVYYCAAGDYFYSYYYWGQGTQVTVSS | polyreactivity (PSR sort gate) | low polyreactivity |
| QVQLVESGGVLVQAGGSLRLSCAASGLTFGGNAKGWYRPAPGKERELVAAISWSDDTTDYADSVKGRFTISRDNAKNTVYLQMNSLKPEDTAVYYCAARLPFEYVDYWGQGTQVTVSS | polyreactivity (PSR sort gate) | low polyreactivity |

I have 5 sequences here; please give me polyreactivity (PSR sort gate) for each one.
1. QVQLVESGGGLVQGGGSLRLSCAASGSISDVYAMGWYRQAPGKERELVAANTSGASTYYADSVKGRFTISRDNAKNTVYLQMNSLKPEDTAVYYCAADSDSQWGMDYWGQGTQVTVSS
2. QVQLVESGGGLVQAGGSLRLSCAASGLTFTTYAMGWYIPAPGKDRELVSAINYRGTSSYYADSVKGRFTISRDNAKKTVYLQINSLKPEDTAVYYCNARQTRSSRINYAEGIYNFWGQGTQVTVSS
3. QVQLVESGGGLVQAGGSLRLSCAASGSTFPDYAMGWYRQAPGKERELVAAISRRGVRTYYADSVKGRFTISRDNAKNTVYLQMNSLKPEDTAVYYCAAPSLLSGSDMDYWGQGTQVTVSS
4. QVQLVESGGGLVQAGGSLRLSCAASGSTFSRYTMGWYRQAPGKERELVAGISGIGGSTDYADSVKGRFTISRDNAKNTVYLQMNSLKPEDTAVYYCNAEYTASYSRGFWRYYYPFEYWGQGTQVTVSS
5. QVQLGESGGGLVQAGGSLRLSCAASARNSSFYEMGWYRQAPGKGSELVAAINWDDGTTYYADSVMGRFTISRDNAQNNVYFQKNSLNPEDTAVYYCAVEGFSSAAYDFEYWGQGSQVTVSS

**A:**
1. low polyreactivity
2. high polyreactivity
3. high polyreactivity
4. high polyreactivity
5. high polyreactivity

----------
Assay: yeast display, Sf9 membrane polyspecificity reagent, FACS + sequencing; frameworks hold sequencing errors
measurement label: polyreactivity (PSR sort gate)

| sequence content | polyreactivity (PSR sort gate) |
| --- | --- |
| QVQLVESGGGLVQAGGSLRLSCAASGSIFPYYVMGWYRQAPGKERELVAAISWSGASTYYADSVKGRFTISRDNAKNTVYLQMNSLKPEDTAVYYCAKYSSHFENDYWGQGTQVTVSS | low polyreactivity |
| QVQLVESGGGLVQAGVSLRLRCASSGSTFAYNAMGWYRQAPGKESELVAAISTSGGYTYYADSVKGRFTISRDNAKNTVYLQMNSLKPEDTAVYYCYAVGRSKHGYSRSYYWGQGTQVTVSS | high polyreactivity |
| QVQLVESGGGLVQAGGSLRLSCAASGSTFGYYAMGWYRQATGKERELVAAISSGGSTSYADSVKGRFTISRDNAKNTVYLQMNSLKPEDTAVYYCNTSYRKKKRYYYWGQGTQVTVSS | high polyreactivity |
| HVQLVESGGGLVQAGGSLRLSCAASGRTFARYAMGWYRQAPGKERELVAAITRGGRTNYADSVKGRFTSSRDNAKNTVYLQMNSLKPEDTAVYYCNAYFVNPYDYWGQGTQVTVSS | high polyreactivity |
| QVQLVESGGGLVQAGGSLRLSCAASGSIFYKNAMGWYRQAPGKVRELVAAITGSGGRTYYADSVKGRFTISRDNAKNTVYLQMNSLKPEDTAVYYCNTDPSPRYRYDYWGQGTQVTVSS | high polyreactivity |

I have 6 sequences here; please give me polyreactivity (PSR sort gate) for each one.
1. QVQLVESGGGLVQAGGSLRLSCAASGSTCARNSMGWYRQAPGKERELVAAISYSGGTTYYADSVKGRFTISRDNAKNTVYLQRNSLKPEDTAVSYCAKWEGHGRNPWGAGTEGDYWGQGTQVTVSS
2. QFQLVESGGGIVQAGGSLRIAVRPPDLPSTLNHLGWSRQAPGKERSVVAAITRGGSTNYADSVKGRFTISRDNAKNTVYLQMNSLKQEDTAVYYCAAPYAGWRDGGDYWGQGTQVTVSS
3. QVQLVESGGGLVQAGGSLRLSCAASGITFYVNAMGWYRQAPGKERELVAAITQSVDITSYADSVKGRFTISRDNAMNTFYLQINRLKPEYTAVYYCATRGIPDDNARDYWGQGTQVTVSS
4. QVQLVESGGGLFQEGGSLRLSCAASGSTFSVNAMGWYRQAPGKERELVAAISKRVGSTYYADSVKGRFTISRDNAKNTVYLQMNSLKPEDTAVYYCAAVIVHYGRAYDYWGQGTQVTVSS
5. QVQLVESGGGLVQAGGSLRLSCAASGRIFPYYAMGWYRQAPGKERELVATITSGGSTYYADSVKGRFTISRDNAKNTVYLQMNSLKPEDTAVYYCAARYPSIYYYRYDYWGQGTQVTVSS
6. QVQLGESGGGLVQAGGSLRLSCAASGLTFDPNAMGWYRQAPGKERELVATITQTDGSTYYADSVKGRFTISRDNAKNTVYLQMNSLKPEDTAVYYCAVDVDEPRYRRPFHHDYWGQGTQVTVSS

**A:**
["low polyreactivity", "low polyreactivity", "low polyreactivity", "high polyreactivity", "high polyreactivity", "low polyreactivity"]

----------
Assay: yeast display, Sf9 membrane polyspecificity reagent, FACS + sequencing; frameworks hold sequencing errors
measurement label: polyreactivity (PSR sort gate)

| sequence content | polyreactivity (PSR sort gate) |
| --- | --- |
| QVQLVESGGGLVQAGGSLRLSCAASGLIFHNNAMGWYRQAPGKERELVARITRSCGSTYYADSVKGRFTISRDNAKNTFYLQMNSLKPEDTAVYYCATDALFDSGGMDYWGQGTQVTVSS | low polyreactivity |
| QVQLVESGGGLVQAGGSLRLSCAASGSIFYNYAMGWSRQAPGKERELVAAITANTGSTYYADSVKGRFTISRVNAKNTVYLQMNSLKPEDTAVYYCATTWTIRRYRYSPRLVDYWGQGTQVTVSS | low polyreactivity |
| QVQLVESGGGLVQAGGSLRLSCAASGYTFSFNAMGWYRQAPGKERELVAAINRGTSTNYADSVKGRFTISRDNAKNTVYLQMNSLKPEDTAVYYCAAGFRRSAGRYDLDYWGQGTQVTVSS | high polyreactivity |
| QVQLVESGGGLVQAGGSLRLSCAASGYTFPQYAMGWYRQAPGKERELVAAITRRGGSTYYADSVKGRFTISRDNAKNTVYLQMNSLKPEDSAVYNCAADSYPYSHGGDYWGQGTQVTVSS | high polyreactivity |

GET /value?item= QVQLVESGGGLVQAGGSLRLSCAASGNTFAAYAMGWYRQAPGKEWELVAAITTSGGITYYADSVKGRFTISRDNAKNTVYLQMNSLKPEDTAVYYCAVDGGRWGQGTQVTVSS &field=polyreactivity (PSR sort gate) returns low polyreactivity

----------
Assay: yeast display, Sf9 membrane polyspecificity reagent, FACS + sequencing; frameworks hold sequencing errors
measurement label: polyreactivity (PSR sort gate)

Illustrative cases are given below, each with its answer.
| sequence content | polyreactivity (PSR sort gate) |
| --- | --- |
| QVQLVESGGGLVQAGGSLRLSCAASGLTFYPYTMGWYRQAPGKERELVAAISSGGSTYYADSVKGRFTISRDNAKNTVYLQMNSLKPEDTAVYYCAARYPYFSYGYWGQGTQVTVSS | high polyreactivity |
| QVQLVESGGGLVQAGGSLRLSCAASGSTFDYYDMGWYRQAPGKERELVAAISSGGDSTYYADSVKGRFTISRDNAKNTVYLQMNSLKPEDTAVYYCAAAVYYGQSVWYYYWGQGTQVTVSS | high polyreactivity |
| QVQLVESGAGLVQAGGSLRLSCADSGSIFYYYAMGWYRQAPGKEREFGAAIRESVGSTYYADSVKGSFTISRDNAKNTVYLQMNSRKPEDTAVYYCAVRRPRRNYNYPYDYWGQGTQVTVSS | low polyreactivity |
| QVQLVESGGGIVQAGGSLRLRCAASGSTFYLNVMGWYRQAPGQERELVAAISSGDGSTYYADSVKGRFTISRDNAKNTVYLQMNSLKPEDTAVYYCAAEPDTEVDYDYWGQGTQVTVSS | low polyreactivity |

Next up:
GET /value?item= QVQLVESGGGLVQAGGSLRLSCAASGSTYENAMGWYRQAPGKERELVAVISRSGGSTYYADSVKGRFTISRDNAKNTVYLQMNSLNPEDTAVYYCATVYSAWSWVHGYYVAMDYWGQGTQVTVSS &field=polyreactivity (PSR sort gate) returns high polyreactivity
